Values from patent US10590132B2

assay: Human plasma protein binding (equilibrium dialysis)
Type: in vitro ADME
conditionDetails: dialysis 18 hours
Please note: fulfilled applies when Human plasma protein binding (% free) is 2 % free or greater, and not fulfilled applies otherwise.

Assess whether reported Human plasma protein binding (% free) for COc1cc(F)c(OCCNCCCF)cc1[C@@H]1c2[nH]c3ccccc3c2C[C@@H](C)N1CC(F)(F)F sits at 2 % free or higher. not fulfilled

Okay, and Cc1c(NCCNCCCF)ccnc1[C@@H]1c2[nH]c3ccccc3c2C[C@@H](C)N1CC(F)(F)F ? fulfilled

Okay, and C[C@@H]1Cc2c([nH]c3ccccc23)[C@@H](c2c(F)ccc(OCCN(C)CCCF)c2F)N1CC1(F)COC1 ? fulfilled

Okay, and COc1ccc(OCCNCCCF)nc1[C@@H]1c2[nH]c3ccccc3c2C[C@@H](C)N1CC(F)(F)F ? fulfilled

Okay, and COc1ccc(OCCNCCCF)c(F)c1[C@@H]1c2[nH]c3ccccc3c2C[C@@H](C)N1CC1(F)CC1 ? fulfilled

Okay, and C[C@@H]1Cc2c([nH]c3c(F)cccc23)[C@@H](c2c(F)ccc(OCCNCCCF)c2F)N1CC(F)(F)CO ? not fulfilled

Okay, and Cc1c(OCCN(C)CCCF)ccc(F)c1[C@@H]1c2[nH]c3ccccc3c2C[C@@H](C(F)(F)F)N1C[C@H](C)C(=O)O ? fulfilled

Okay, and C[C@@H]1Cc2c([nH]c3ccccc23)[C@@H](c2c(F)ccc(OCCNCCCF)c2F)N1CC1(F)COC1 ? fulfilled

Okay, and Cc1c([C@@H]2c3[nH]c4ccccc4c3C[C@@H](C)N2C[C@H](C)C(=O)O)ccnc1OCCNCCCF ? fulfilled

Okay, and COc1c(F)cc(OCCNCCCF)cc1[C@@H]1c2[nH]c3ccccc3c2C[C@@H](C)N1CC(F)(F)F ? not fulfilled

Okay, and C[C@@H]1Cc2c([nH]c3ccccc23)[C@@H](c2nccc(OCCNCCCF)c2F)N1CC(F)(F)CO ? fulfilled

Okay, and Cc1ccc2[nH]c3c(c2c1)C[C@@H](C)N(CC(F)(F)CO)[C@@H]3c1c(F)cnc(OCCNCCCF)c1F ? not fulfilled

Okay, and C[C@@H]1Cc2c([nH]c3ccccc23)[C@@H](c2c(F)ccc(NCCNCCCF)c2F)N1CC(F)(F)F ? not fulfilled

Okay, and C[C@@H]1Cc2c([nH]c3ccccc23)[C@@H](c2c(F)ccc(OCCN(C)CCCF)c2C(F)F)N1C[C@H](C)C(=O)O ? fulfilled

Okay, and COc1ccc(OCCNCCCF)c(F)c1[C@@H]1c2[nH]c3ccc(F)cc3c2C[C@@H](C)N1CC(F)(F)CO ? fulfilled

Okay, and C[C@@H]1Cc2c([nH]c3ccc(F)cc23)[C@@H](c2c(F)ccc(OCCNCCCF)c2F)N1CC(F)(F)CO ? fulfilled

Okay, and C[C@@H]1Cc2c([nH]c3ccccc23)[C@@H](c2c(F)cnc(OCCNCCCF)c2F)N1CC(F)(F)F ? not fulfilled

Okay, and C[C@@H]1Cc2c([nH]c3ccccc23)[C@@H](c2c(F)ccc(OCCNCCCF)c2F)N1CC(F)F ? fulfilled

Okay, and COc1ccc(OCCNCCCF)cc1[C@@H]1c2[nH]c3ccc(F)cc3c2C[C@@H](C)N1CC(F)(F)CO ? fulfilled

Okay, and Cc1ccc(OCCNCCCF)c(C)c1[C@@H]1c2[nH]c3ccccc3c2C[C@@H](C)N1CC(F)(F)F ? not fulfilled

Okay, and C[C@@H]1Cc2c([nH]c3ccccc23)[C@@H](c2cc(OCCNCCCF)cc(F)c2F)N1CC(F)(F)F ? not fulfilled

Okay, and CC(CN1[C@H](c2c(Cl)ccc(OCCNCCCF)c2Cl)c2[nH]c3ccc(F)cc3c2C[C@H]1C)C(=O)O (single isomer, unassigned) [Example 130] ? fulfilled

Okay, and COc1ccc(OCCNCCC(F)(F)F)cc1[C@@H]1c2[nH]c3ccccc3c2C[C@@H](C)N1CC(F)(F)F ? not fulfilled

Okay, and COc1ccc(OCCNCCCF)cc1[C@@H]1c2[nH]c3ccccc3c2C[C@@H](C)N1CC(F)(F)F ? not fulfilled

Okay, and C[C@@H]1Cc2c([nH]c3cccc(F)c23)[C@@H](c2c(F)ccc(OCCNCCCF)c2F)N1CC(F)(F)CO ? not fulfilled

Okay, and COc1ccc(OCCNCCCF)c(F)c1[C@@H]1c2[nH]c3ccccc3c2C[C@@H](C)N1CC1(F)COC1 ? fulfilled

Okay, and C[C@@H]1Cc2c([nH]c3ccccc23)[C@@H](c2c(F)ccc(OCCNCCCF)c2Cl)N1CC(F)(F)CO ? not fulfilled
